Numbers sourced from BindingDB's records for doi:10.1111/cbdd.12778.

Record: IC50 reported on Aminopeptidase N (Sus scrofa).
Sequence (P15145 whole entry): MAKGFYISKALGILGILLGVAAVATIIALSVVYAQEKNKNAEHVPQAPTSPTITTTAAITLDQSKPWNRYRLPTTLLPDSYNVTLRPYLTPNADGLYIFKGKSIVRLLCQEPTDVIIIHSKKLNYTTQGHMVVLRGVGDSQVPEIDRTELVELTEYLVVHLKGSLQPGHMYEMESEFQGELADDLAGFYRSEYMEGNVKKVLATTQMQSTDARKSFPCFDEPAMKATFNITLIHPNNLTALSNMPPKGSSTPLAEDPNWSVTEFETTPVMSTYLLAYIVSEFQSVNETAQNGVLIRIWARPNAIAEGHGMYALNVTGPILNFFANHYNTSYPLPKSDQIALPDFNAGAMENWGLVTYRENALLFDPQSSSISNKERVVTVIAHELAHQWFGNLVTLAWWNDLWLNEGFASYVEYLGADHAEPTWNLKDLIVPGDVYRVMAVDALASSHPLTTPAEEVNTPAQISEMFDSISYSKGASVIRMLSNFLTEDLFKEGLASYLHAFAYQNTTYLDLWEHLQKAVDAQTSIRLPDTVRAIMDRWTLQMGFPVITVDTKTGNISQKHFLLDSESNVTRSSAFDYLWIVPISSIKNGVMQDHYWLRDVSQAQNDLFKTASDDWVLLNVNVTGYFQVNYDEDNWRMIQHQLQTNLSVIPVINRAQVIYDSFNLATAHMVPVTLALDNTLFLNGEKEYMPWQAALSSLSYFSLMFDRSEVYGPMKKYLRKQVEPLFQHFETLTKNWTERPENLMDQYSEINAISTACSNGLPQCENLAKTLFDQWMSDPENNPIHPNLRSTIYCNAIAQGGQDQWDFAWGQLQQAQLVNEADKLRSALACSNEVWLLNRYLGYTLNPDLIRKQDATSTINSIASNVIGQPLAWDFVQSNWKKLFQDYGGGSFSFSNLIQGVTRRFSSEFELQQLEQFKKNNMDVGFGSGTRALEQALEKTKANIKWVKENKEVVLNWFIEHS
observable: IC50

>>> measured("O=C(CCCCCCC(=O)Nc1ccccc1)NO [Zolinza]")
"> 100 µM"
>>> measured("CC1(C)CCC(C)(C)c2cc(NC(=O)c3ccc(C(=O)O)cc3)ccc21")
"> 100 µM"
